pIC50 values for PIK3CA (human) (UniProt P42336) compiled from several publications are listed below.
pIC50: −log10 of the molar value.

1. CS(=O)(=O)Nc1ccc(-c2cccc(Oc3cc(=O)[nH]c4ccccc34)c2)cc1 :: < 5.00
2. CC(=O)N1[C@H](C)CN(c2nc3c(N4CCOCC4)nc(-c4cnc(N)nc4)nc3n2CC2CC2)C[C@@H]1C :: > 8.00
3. Cc1cccc2cc([C@H](C)Nc3nc(Cl)nc4[nH]cnc34)n(-c3ccccc3)c(=O)c12 :: > 5.00
4. COc1ncc(-c2ccc3ncc4nncn4c3c2)cc1NS(=O)(=O)c1ccc(F)cc1F :: > 7.00

query: What value of measured pIC50 is listed for `C[C@H](NC(=O)c1c(N)oc2cccnc12)c1cc2cccc(Cl)c2c(=O)n1-c1ccccc1` ?
result: < 5.00

query: What value of measured pIC50 is listed for `Nc1nnc(-c2cc(N3CCOCC3)cc(S(=O)(=O)c3ccccc3)c2)s1` ?
result: 5.66
